Measured solution mAb binding, % of PRLR binding, listed per entry.
- TARGET OF ASSAY: T1, human PRLR (Biacore antigen) (human, UniProt P16471 25-234, limits assumed)
- T1 construct: The construct injected over captured antibody is not described (a soluble form is likely); also called huPRLR
- T1 sequence: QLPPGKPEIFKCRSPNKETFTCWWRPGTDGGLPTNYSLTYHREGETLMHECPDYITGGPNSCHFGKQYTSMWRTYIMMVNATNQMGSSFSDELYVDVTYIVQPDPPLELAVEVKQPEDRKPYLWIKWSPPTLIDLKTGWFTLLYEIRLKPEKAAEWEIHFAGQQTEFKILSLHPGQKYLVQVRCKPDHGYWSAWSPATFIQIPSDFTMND
- MEASUREMENT NOTES: SPR simultaneous binding; PRLR held by surface mAb LFA102
Write down the numeric answer in % and omit the unit.

- Ab30 (antibody, human IgG1, kappa, V domains shown, humanized from Ab5; G1; also called Ab2 HC.1a and Ab2 LC.1a) VH: EVQLVQSGAEVKKPGSSVKVSCKASGYTFTSFWMHWVRQAPGQGLEWIGVIDPSDTYTNYNQKFKGRATLTVDESSSTAYMELSSLRSEDTAVYYCARGDYSNWFTYWGQGTLVTVSS VL: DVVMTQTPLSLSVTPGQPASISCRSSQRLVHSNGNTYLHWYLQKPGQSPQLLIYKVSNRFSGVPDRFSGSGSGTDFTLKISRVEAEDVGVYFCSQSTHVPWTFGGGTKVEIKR: 103
- chAb8 (antibody, human IgG1, kappa, V domains shown, chimeric, murine variable and human G1/kappa constant regions) VH: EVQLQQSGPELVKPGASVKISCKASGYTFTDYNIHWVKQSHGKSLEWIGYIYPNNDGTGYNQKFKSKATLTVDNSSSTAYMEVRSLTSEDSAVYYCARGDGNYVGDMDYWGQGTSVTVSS VL: DIQMTQSPASLSASVGETVTITCRASENIYSYLAWYQQKQGKPPQLLVYNAKTLAEGVPSRFSGGGSGTQFSLKINSLQPEDFGSYYCQHHYATPFTFGSGTKLEIKT: -2
- Ab19 (antibody, human IgG1, kappa, V domains shown, humanized from Ab6; G1; also called Ab1 HC.1a and Ab1 LC.1a) VH: EVQLVQSGAEVKKPGSSVKVSCKASGYTFTTYWMHWVRQAPGQGLEWIGEIDPSDSYSNYNQKFKDRATLTVDKSTSTAYMELSSLRSEDTAVYYCARNGGLGPAWFSYWGQGTLVTVSS VL: DIQMTQSPSSVSASVGDRVTITCKASQYVGTAVAWYQQKPGKSPKLLIYSASNRYTGVPSRFSDSGSGTDFTLTISSLQPEDFATYFCQQYSSYPWTFGGGTKVEIKR: 122
- Ab39 (antibody, human IgG1, kappa, V domains shown, humanized from Ab7; G1; also called Ab4 HC.1a and Ab4 LC.1a) VH: EVQLVQSGAEVKKPGSSVKVSCKASGYTFTSYWIHWVRQAPGQGLEWIGEIDPSDSYTNYNQKFKGRATLTVDKSSSTAYMELSSLRSEDTAVYYCARSFFTNWFAYWGQGTLVTVSS VL: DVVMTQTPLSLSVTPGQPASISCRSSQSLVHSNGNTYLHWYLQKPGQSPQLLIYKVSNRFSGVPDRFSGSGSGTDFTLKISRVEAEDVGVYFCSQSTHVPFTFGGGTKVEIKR: 92

API: the following record is the query input.
Consider the binder Ab21 (antibody, human IgG1, kappa, V domains shown, humanized from Ab6; G1; also called Ab1 HC.1a and Ab1 LC.2a) VH: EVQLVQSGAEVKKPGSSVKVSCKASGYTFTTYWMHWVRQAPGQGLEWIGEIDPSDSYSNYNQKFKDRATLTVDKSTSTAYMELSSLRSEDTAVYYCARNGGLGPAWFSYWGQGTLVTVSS VL: EIVMTQSPATLSVSPGERATLSCKASQYVGTAVAWYQQKPGQSPRLLIYSASNRYTGVPARFSDSGSGTEFTLTISSLQSEDFAVYFCQQYSSYPWTFGGGTKVEIKR and give its recorded solution mAb binding, % of PRLR binding. 104
